- TEST METHOD NOTES: Clearance in Sprague-Dawley rat at 1 mg/kg, iv and 3 mg/kg, po
- Assay type: ADME, organism-based
- CONDITION INFO: in vivo
Listed here are compounds together with their documented clearance.
ASSAY METRIC: clearance (mL/min/kg)

> print(dat)
                               smiles.input  assay.metric  numeric.value
1  N#Cc1ncc(C(=O)N[C@H](Cc2ccccc2)CN2CCCC2)c(NCC2CCC3(CC2)CC3)n1     clearance           16.7
2  CN1CCC(CCOc2nc(C#N)nc(NCC3CCC4(CC3)CC4)c2Br)CC1     clearance             85
3  CN1CCC(Oc2ccc(NC(=O)c3cnc(C#N)nc3NCC3CCC4(CC3)CC4)c(-c3ccccc3)c2)CC1     clearance           13.3

* * *

- TARGET: Cathepsin S (Homo sapiens)
- Sequence (P25774 whole entry): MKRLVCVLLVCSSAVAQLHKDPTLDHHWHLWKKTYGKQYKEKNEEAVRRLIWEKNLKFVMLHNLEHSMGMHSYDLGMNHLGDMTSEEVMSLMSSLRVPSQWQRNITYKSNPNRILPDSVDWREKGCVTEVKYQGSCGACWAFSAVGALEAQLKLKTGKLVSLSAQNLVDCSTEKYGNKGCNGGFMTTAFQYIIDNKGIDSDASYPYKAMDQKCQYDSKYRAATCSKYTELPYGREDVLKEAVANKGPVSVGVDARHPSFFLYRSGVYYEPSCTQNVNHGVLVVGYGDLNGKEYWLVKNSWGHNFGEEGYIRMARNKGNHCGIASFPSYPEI
- TEST METHOD NOTES: Inhibition of human recombinant cathepsin S by fluorometric assay
pIC50: −log10 of the molar value.
Listed here are molecules together with their documented pIC50.
ASSAY METRIC: pIC50

> print(dat)
                                smiles.input  relation.qualifier  numeric.value
 1  CN1CCC(Oc2nc(C#N)nc(NCC3CCC4(CC3)CC4)c2C(=O)NCc2ccccc2)CC1                   =           9.00
 2  N#Cc1ncc(C(=O)NCCc2ccccc2)c(NCC2CCCCC2)n1                   =           7.66
 3  N#Cc1ncc(C(=O)NCCc2ccccc2)c(NCC2CCC3(CC2)CC3)n1                   =           7.82
 4  CN1CCC(Cc2ccccc2)(NC(=O)c2cnc(C#N)nc2NCC2CCC3(CC2)CC3)CC1                   =           8.70
 5  N#Cc1ncc(C(=O)NCCc2ccccc2)c(NC2CCCCC2)n1                   =           6.89
 6  CN1CCC(CCOc2nc(C#N)nc(NCC3CCC4(CC3)CC4)c2C(=O)NCc2ccccc2)CC1                   >           9.00
 7  CN1CCC(CNC(=O)c2cnc(C#N)nc2NCC2CCC3(CC2)CC3)(c2ccccc2)CC1                   =           8.22
 8  N#Cc1ncc(C(=O)N[C@H](Cc2ccccc2)CN2CCCC2)c(NCC2CCC3(CC2)CC3)n1                   >           9.00
 9  CN1CCC(COc2nc(C#N)nc(NCC3CCC4(CC3)CC4)c2C(=O)NCc2ccccc2)CC1                   >           9.00
10  N#Cc1ncc(C(=O)NCCc2ccccc2)c(OCC2CCCCC2)n1                   =           7.85
11  N#Cc1ncc(C(=O)N[C@@H](Cc2ccccc2)CN2CCCC2)c(NCC2CCC3(CC2)CC3)n1                   =           7.64
12  CN1CCC(Oc2ccc(NC(=O)c3cnc(C#N)nc3NCC3CCC4(CC3)CC4)c(-c3ccccc3)c2)CC1                   =           8.52
13  CN(CC1CCCCC1)c1nc(C#N)ncc1C(=O)NCCc1ccccc1                   =           7.49
14  CN1CCC(CCOc2nc(C#N)nc(NCC3CCC4(CC3)CC4)c2C(=O)NCCc2ccccc2)CC1                   >           9.00
15  N#Cc1ncc(C(=O)NCCc2ccccc2)c(NCC2CCC(F)(F)CC2)n1                   =           7.66
16  C[C@@](Cc1ccccc1)(CN1CCCC1)NC(=O)c1cnc(C#N)nc1NCC1CCC2(CC1)CC2                   =           7.68
17  COc1cc(NC(=O)c2cnc(C#N)nc2NCC2CCC3(CC2)CC3)c(-c2ccccc2)cc1OC                   =           7.62
18  N#Cc1ncc(C(=O)N[C@H](Cc2ccccn2)CN2CCCC2)c(NCC2CCC3(CC2)CC3)n1                   =           8.40
19  CN1CCC(CCOc2cc(NCC3CCC4(CC3)CC4)nc(C#N)n2)CC1                   =           7.66
20  CN1CCC(NC(=O)c2cnc(C#N)nc2NCC2CCC3(CC2)CC3)(c2ccccc2)CC1                   =           8.15
21  CN1CCC(CCOc2nc(C#N)nc(NCC3CCC4(CC3)CC4)c2Br)CC1                   =           8.70
22  CC1(C)CCC(CNc2nc(C#N)ncc2C(=O)NCCc2ccccc2)CC1                   =           7.03
23  CNC(=O)c1c(NCC2CCC3(CC2)CC3)nc(C#N)nc1OCCC1CCN(C)CC1                   =           8.70
